Reported pKB values are given for each entry in this list.
- assayed-target: Substance-K receptor (Oryctolagus cuniculus)
- assay-text: Compound was tested for its antagonistic activity against tachykinin NK2 receptor in isolated rabbit pulmonary artery (RPA).
- Assay type: functional
Just the number, please.

For orientation, consider the following solved cases.
molecule	assayed-target	pKB
CC(C)[C@H](NC(=O)[C@H](Cc1c[nH]c2ccccc12)NC(=O)[C@H](Cc1ccc(O[C@@H]2O[C@H](CO)[C@@H](O)[C@H](O)[C@H]2O)cc1)NC(=O)[C@@H](N)CC(=O)O)C(=O)N[C@@H](Cc1c[nH]c2ccccc12)C(=O)N[C@H](Cc1c[nH]c2ccccc12)C(=O)N[C@@H](CCCCN)C(N)=O	Substance-K receptor (Oryctolagus cuniculus)	6.2
CC(C)[C@H](NC(=O)[C@H](Cc1c[nH]c2ccccc12)NC(=O)[C@H](Cc1ccc(O)cc1)NC(=O)[C@H](CC(=O)O)NC(=O)[C@@H](N)CO[C@@H]1O[C@H](CO)[C@@H](O)[C@H](O)[C@H]1O)C(=O)N[C@@H](Cc1c[nH]c2ccccc12)C(=O)N[C@H](Cc1c[nH]c2ccccc12)C(=O)N[C@@H](CCCCN)C(N)=O	Substance-K receptor (Oryctolagus cuniculus)	7.3

--- query ---
Asked: Enter reported pKB observed with Substance-K receptor (Oryctolagus cuniculus) for `CC(C)[C@H](NC(=O)[C@@H](Cc1c[nH]c2ccccc12)NC(=O)[C@H](Cc1ccc(O)cc1)NC(=O)[C@@H](N)CC(=O)O)C(=O)N[C@H](Cc1c[nH]c2ccccc12)C(N)=O`
Given back: 6.3
